Source: the supplement of paper PMC8975748

In this section we review reported z-score of subpopulation abundance values for a set of molecules.
Test system: Saccharomyces cerevisiae BY4741 SeMeCo community
Assay: z-score of subpopulation abundance vs DMSO median, subpopulation auxotrophic for HU; higher = larger share of this subpopulation than in DMSO controls
Conditions: 10 µM; 24 h; SM minimal medium; subpopulation (auxotrophy): HU

MOLECULE	z-score of subpopulation abundance
COc1ccc(-c2nc3cc(C4=NNC(=O)CC4C)ccc3[nH]2)cc1 (configuration not stated) [Pimobendan]	-0.28
CCC(=O)NS(=O)(=O)c1ccc(-c2c(-c3ccccc3)noc2C)cc1 [Parecoxib]	-0.34
CN(C)CCc1c[nH]c2ccc(CS(=O)(=O)N3CCCC3)cc12 [Almotriptan Malate]	0
C[C@H](NCc1ccc(OCc2cccc(F)c2)cc1)C(N)=O [Safinamide]	1.16
CCN1CCN(C(=O)N[C@@H](C(=O)N[C@@H]2C(=O)N3C(C(=O)O)=C(CSc4nnnn4C)CS[C@H]23)c2ccc(O)cc2)C(=O)C1=O [Cefoperazone]	-0.48
O=C(C1CCCCC1)N1CC(=O)N2CCc3ccccc3C2C1 (configuration not stated) [Praziquantel]	-0.36
O=C(O)c1cc(O)c2c(c1)[C@H]([C@H]1c3cc(C(=O)O)cc(O)c3C(=O)c3c(O[C@@H]4O[C@H](CO)[C@@H](O)[C@H](O)[C@H]4O)cccc31)c1cccc(O[C@@H]3O[C@H](CO)[C@@H](O)[C@H](O)[C@H]3O)c1C2=O [Sennoside A]	0.33
C/C(=C\C(=O)OCCCCCCCCC(=O)O)C[C@@H]1OC[C@H](C[C@@H]2O[C@H]2[C@@H](C)[C@H](C)O)[C@@H](O)[C@H]1O [Mupirocin calcium]	1.13
CC(C)NNC(=O)c1ccncc1 [Iproniazid]	0.46
NS(=O)(=O)Cc1noc2ccccc12 [Zonisamide]	-0.35
COC(=O)Nc1nc2cc([S+]([O-])c3ccccc3)ccc2[nH]1 (configuration not stated) [Oxfendazole]	0.76
Cc1ncc([N+](=O)[O-])n1CC(C)O (configuration not stated) [Secnidazole]	0.82
